target: 5-hydroxytryptamine receptor 1D (Bos taurus); experiment: Binding affinity against calf caudate 5-hydroxytryptamine 1D receptor
reported_metric: IC50 (nM)
# unit: nM | format: bare number

State the recorded IC50 for this entry: CN(C)[C@H]1C[C@H](c2c[nH]c3ccc(CC4COC(=O)N4)cc32)C1 (stereo partly specified)
89

====

target: 5-hydroxytryptamine receptor 2A (Oryctolagus cuniculus); assay: Binding affinity against rabbit aorta 5-HT2A receptor
reported_metric: IC50

State the recorded IC50 for this entry: CN(C)[C@H]1C[C@H](c2c[nH]c3ccc(CC4COC(=O)N4)cc32)C1 (stereo partly specified)
> 10 µM
